test system: SN12C; assay: NCI tumour cell line growth inhibition, 48 h
The source made the active and inactive calls. Cut-off read from the data, not from the text of the source: active = GI50 up to about 1.1 µM and inactive = higher.
Outcome field: choose from active, inactive

Incoming: Field: outcome | Entry: Cc1ncc(CCl)c(CCl)c1O
Outgoing: inactive

Incoming: Field: outcome | Entry: O=C1c2cc3c(cc2NC(c2ccccc2F)C1O)OCO3 (configuration not stated)
Outgoing: inactive

Incoming: Field: outcome | Entry: CCCCCCc1ccc(CCCCCCCC(=O)O)o1
Outgoing: inactive

* * *

Field: GI50. Provide a value for each of the compounds that follow.
tested on: M14; assay: NCI tumour cell line growth inhibition, 48 h
The source made the active and inactive calls. Cut-off read from the data, not from the text of the source: active = GI50 up to about 1.1 µM and inactive = higher.

Sample records with GI50:
CCc1ccc(CCN2CCCCC2)nc1 | > 100 µM (inactive)
Cc1no[n+]([O-])c1/C=N/NS(=O)(=O)c1ccccc1 | > 100 µM (inactive)

Would you kindly look at the next entry?
Incoming: Value wanted: GI50 (M14) of entry C=C(C)C1Cc2c(cc(O)c3c(=O)c4c(oc23)C(O)Oc2cc(OC)c(OC)cc2-4)O1 (stereo not drawn)
Outgoing: > 10 µM (inactive)

* * *

Field: GI50. Provide a value for each of the compounds that follow.
system: SF-539; assay: NCI tumour cell line growth inhibition, 48 h
Calls of active or inactive are those of the source. Cut-off read from the data, not from the text of the source: active = GI50 up to about 1.1 µM and inactive = higher.

COCC12CCC(OC)C34C5CC6(O)C(OC)C=C(C5C6OC(=O)c5ccccc5)C(C(OC)C13)C4N(C)C2 (configuration not stated) | > 100 µM (inactive)
CC(=O)OC1CCC2(C)C(=CCC3C2CCC2(C)C(C(C)C(=O)O)CCC32)C1 (configuration not stated) | > 100 µM (inactive)
COC(=O)Cc1cc2c(cc1C(=O)c1ccc(N)cc1)OCO2 | 2.9 µM (inactive)
COC(C/C(=C/CO[Si](C(C)C)(C(C)C)C(C)C)C(=O)Nc1ccccc1I)OC | 19.8 µM (inactive)

# batch: return GI50 for each of the 2 compounds below
1. CC(C)=CCNc1ncnc2[nH]cnc12
2. NC(=O)SCCC(N)C(=O)O (configuration not stated)

Outgoing:
> 100 µM (inactive)
> 100 µM (inactive)

* * *

tested on: NCI-H23; assay: NCI tumour cell line growth inhibition, 48 h
Activity calls are given as the source filed them. Cut-off read from the data, not from the text of the source: active = GI50 up to about 1.1 µM and inactive = higher.
Outcome field: choose from YES (active), NO (inactive)

NS(=O)(=O)c1nnc(NC(=O)Nc2ccc(Cl)c(Cl)c2)s1 | NO

Incoming: Field: outcome | Entry: COc1ccc2oc(C(=O)O)c3c2c1CCC3
Outgoing: NO

Incoming: Field: outcome | Entry: O/N=C1\CC2(N3CCOCC3)CCC1(Cc1ccccc1)CC2
Outgoing: NO

Incoming: Field: outcome | Entry: O=C(O)CCC1c2[nH]c3ccccc3c2CCN1Cc1ccccc1 (stereo not given)
Outgoing: NO

Incoming: Field: outcome | Entry: CC(C)(C)OC(=O)[C@@H]1CCC(=O)N1C1(c2ccccc2)c2ccccc2-c2ccccc21
Outgoing: NO

Incoming: Field: outcome | Entry: Cc1ccc(C(=O)N/N=C(\N=N\c2ccccc2[N+](=O)[O-])c2ccc(N(C)C)cc2)cc1
Outgoing: NO

Incoming: Field: outcome | Entry: O=CN1CCN(C(=O)c2ccc(Cl)c(Cl)c2)C1=S
Outgoing: NO

Incoming: Field: outcome | Entry: COc1cc(C2=C(C)[C@@H]3CN(CC=C3c3ccc(Cl)cc3)C2)c(S(=O)(=O)O)cc1OC
Outgoing: NO

Incoming: Field: outcome | Entry: COc1cc(/C=C\c2ccc(Cl)cc2)cc(OC)c1OC
Outgoing: YES

Incoming: Field: outcome | Entry: O=P(NC12CC3CC(CC(C3)C1)C2)(N1CC1)N1CC1
Outgoing: NO

* * *

system: HOP-62; assay: NCI tumour cell line growth inhibition, 48 h
The source made the active and inactive calls. No stated cut-off is given here; in the data, active = GI50 up to about 1.1 µM and inactive = higher.
Field: GI50. Provide a value for each of the molecules that follow.

# batch: return GI50 for each of the 2 molecules below
1. O=C(NC(Cc1ccc(Br)cc1)C(=O)O)c1ccc(I)cc1 (stereo not drawn)
2. CC(Nc1cc(Cl)cc(Cl)c1)c1ccncc1 (stereo not drawn)

Outgoing:
1. > 100 µM (inactive)
2. 15.8 µM (inactive)

Incoming: Quick one: GI50 of O=C(CCCN1CCC2(CC1)CC(=O)N(N1CCOCC1)C2=O)c1ccc(F)cc1 ?
Outgoing: > 100 µM (inactive)

* * *

tested on: SN12C; experiment: NCI tumour cell line growth inhibition, 48 h
Calls of active or inactive are those of the source. No stated cut-off is given here; in the data, active = GI50 up to about 1.1 µM and inactive = higher.
recorded.endpoint: GI50

Sample records with GI50:
CN(CCNC(=O)c1c[nH]c2c1ccc1ccccc12)CCNC(=O)c1c[nH]c2c1ccc1ccccc12 | 3.39 µM (inactive)
CC1=C(C#N)C(C#N)(C#N)C(NN(C)C)C1 (centres undefined) | 14.1 µM (inactive)
O=[N+]([O-])C1=Cc2cc(Cl)ccc2OC1c1cccc2ccccc12 (centres undefined) | 0.723 µM (active)
O=C1NC(=O)C(C(c2ccc([N+](=O)[O-])cc2)C2C(=O)NC(=O)NC2=O)C(=O)N1 | > 100 µM (inactive)

# batch: return GI50 for each of the 2 compounds below
1. Cc1c(C(=O)CC(=O)C(=O)Nc2ccc(Cl)c(Cl)c2)[n+]([O-])c2ccccc2[n+]1[O-]
2. CC(C)NC(=O)OCCN=C1c2ccccc2CCc2ccccc21

Outgoing:
["23.8 µM (inactive)", "18.8 µM (inactive)"]

* * *

system: SF-539; experiment: NCI tumour cell line growth inhibition, 48 h
Activity calls are given as the source filed them. No stated cut-off is given here; in the data, active = GI50 up to about 1.1 µM and inactive = higher.
recorded.endpoint: GI50

COc1ccc(C(CC2(c3ccc(OC)cc3)SCCCS2)NC(C)=O)cc1 (stereo unspecified) | > 100 µM (inactive)
CCCCCCCCCCCCCC[C@@H](O)[C@H]1CC[C@H]([C@H]2CC[C@H]([C@H](O)CCCCCC[C@@H](O)CC3=C[C@H](C)OC3=O)O2)O1 | > 13.8 µM (inactive)
CC(C)(C)NNc1c([N+](=O)[O-])cnn(-c2ccccc2)c1=O | 13.2 µM (inactive)
O=C1c2cc3c(cc2NC(c2ccccc2F)C1O)OCO3 (stereo unspecified) | 12.2 µM (inactive)
CN1c2ccccc2C(=O)NC12CCNCC2 | > 100 µM (inactive)

Would you kindly look at the next entry?
Incoming: Quick one: GI50 of Nc1nc2c(c(-c3ccccc3Cl)n1)COC/C2=C\c1ccccc1Cl ?
Outgoing: 18.2 µM (inactive)

* * *

Field: GI50. Provide a value for each of the compounds that follow.
system: NCI-H23; assay: NCI tumour cell line growth inhibition, 48 h
Calls of active or inactive are those of the source. No stated cut-off is given here; in the data, active = GI50 up to about 1.1 µM and inactive = higher.

Sample records with GI50:
O=C1Nc2ccccc2/C1=N/N=C1NCCCCN1 | > 100 µM (inactive)
COc1ccc2c(c1)CCC1=C/C(=N\NC(N)=O)CCC12C (stereo not given) | > 10 µM (inactive)
CC12OC3(C)OC(=O)C(c4ccccc4)(O1)C3(C)O2 (stereo not given) | > 100 µM (inactive)
O=C(C=P(c1ccccc1)(c1ccccc1)c1ccccc1)c1ccc(-c2cccc([N+](=O)[O-])c2)s1 | 77.6 µM (inactive)

Incoming: Value wanted: GI50 (NCI-H23) of entry CCOP(=O)(OCC)C(C#N)Cc1ccco1 (stereo not given)
Outgoing: > 10 µM (inactive)

* * *

test system: SN12C; test: NCI tumour cell line growth inhibition, 48 h
Calls of active or inactive are those of the source. Cut-off read from the data, not from the text of the source: active = GI50 up to about 1.1 µM and inactive = higher.
Outcome field: choose from Yes (active), No (inactive)

O=C(O)c1c[nH]c2c(Sc3ccccc3)nccc2c1=O | No
COc1cccc2c1C(=O)c1c(O)c3c(c(O)c1C2=O)CC(O)(C(=O)CO)CC3OC1CC(N2CCOCC2C#N)C(O)C(C)O1 (stereo not drawn) | Yes
Cc1cc(NCCCCCCCCNc2cc(C)nc3cc(N(C)C)ccc23)c2ccc(N(C)C)cc2n1 | No
O=c1[nH]c2ccc([N+](=O)[O-])c(Cl)c2c2ccccc12 | No
[O-][S+]1Nc2c(Cl)cc(Cl)c(Cl)c2S1 (stereo not drawn) | No

Incoming: Field: outcome | Entry: NC(=O)SCCC(N)C(=O)O (stereo not drawn)
Outgoing: No

Incoming: Field: outcome | Entry: C[N+](C)(C)CC(=O)N/N=C(/Cc1nc2ccc([N+](=O)[O-])cc2nc1O)C(=O)Nc1cc(C(F)(F)F)ccc1Cl
Outgoing: No

Incoming: Field: outcome | Entry: CC[C@H]1C=CCC[C@@]2(C[C@@H]3CC[C@H]4[C@@H](C(=O)OCCCCCCCCCCCCCCCC(=O)N(CCCNC(C)=O)C[C@H](CCNC(C)=O)OC(C)=O)[C@@]5(CCC[C@@H](C)O5)NC(=[N+]34)N2)O1
Outgoing: No

Incoming: Field: outcome | Entry: NC(=O)NC(=O)c1cccc(CNc2ccc(C(=O)N[C@@H](CCC(=O)O)C(=O)O)cc2)n1
Outgoing: No

Incoming: Field: outcome | Entry: CC(=O)Oc1ccc2c(C)cc(=O)oc2c1
Outgoing: No

Incoming: Field: outcome | Entry: C=CCc1cccc2cc(C(=O)NC3CCCCC3)c(=N)oc12
Outgoing: No

Incoming: Field: outcome | Entry: O=C(CC1(O)C(=O)Nc2c(Cl)cc(Cl)cc21)c1cccc([N+](=O)[O-])c1 (stereo not drawn)
Outgoing: No

Incoming: Field: outcome | Entry: O=C1OC[C@@H]2Cc3cc4c(cc3[C@H](c3ccc5c(c3)OCO5)[C@@H]12)OCO4
Outgoing: No
